# abundance fitness listing for each entry below
B1: Far upstream element-binding protein 3, residues 75 to 150; numbered along this chain, Q96I24 (parent)
chain: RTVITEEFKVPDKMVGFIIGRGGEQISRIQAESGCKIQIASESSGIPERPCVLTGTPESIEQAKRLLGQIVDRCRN

# Variants of: B1
# procedure-summary: abundance fitness (aPCA) (normalised: wild type 0, dead -1); higher = more abundant; growth selection in yeast, the domain comes from the species named
# condition-info: Homo sapiens
value-kind: abundance fitness

INSERT INTO measurements (mutation_label, numeric_value) VALUES
  ('I70E', -0.004),
  ('G16T', -0.063),
  ('K64V', -0.35),
  ('E7S', -0.019),
  ('I37F', -0.447),
  ('L53F', -0.354),
  ('A40Y', -0.112),
  ('E32R', -0.039),
  ('E61L', -0.082),
  ('A63V', -0.31),
  ('E7L', -0.048),
  ('T5D', -0.204),
  ('S33C', -0.079),
  ('S43C', 0.017),
  ('V3H', -0.155),
  ('S41Q', 0.012),
  ('A31W', -0.168),
  ('V71S', -0.118),
  ('V3E', -0.029),
  ('A63T', -0.412),
  ('E61C', -0.078),
  ('A31D', -0.015),
  ('V10I', -0.036),
  ('G23K', -0.082),
  ('G22N', 0.006),
  ('K13W', -0.142),
  ('E24W', 0.222),
  ('R28M', -0.104),
  ('K36R', -0.027),
  ('L66H', -0.148),
  ('M14Q', -0.248),
  ('G16W', -0.21),
  ('E58V', -0.107),
  ('C51P', -0.671),
  ('I39E', -0.502),
  ('Q30I', -0.131),
  ('T5I', -0.231),
  ('V52R', -0.072),
  ('R1F', -0.059),
  ('K36Y', -0.14),
  ('E58D', -0.054),
  ('P47T', -0.063),
  ('S44H', -0.013),
  ('R75N', -0.126),
  ('I39C', -0.152),
  ('E42F', -0.093);

Data origin: the Human Domainome abundance scans (Beltran et al. 2025)
